measured_target: HLA-B*35:01
method: IEDB peptide-MHC binding, purified MHC/competitive/radioactivity; filed as Kd, often an IC50 or EC50 that approximates it; bounds were set here for any values at or beyond the usual limits of such assays
conditions_used: source organism: Triticum aestivum
pKd: −log10 of the molar value.
measurement_name: pKd

Record `QPQLPYPQPQL` . Reported pKd: ≤ 4.39

====

measured_target: HLA-A*02:11
method: IEDB peptide-MHC binding, purified MHC/competitive/fluorescence; filed as Kd, often an IC50 or EC50 that approximates it; bounds were set here for any values at or beyond the usual limits of such assays
conditions_used: source organism: Human immunodeficiency virus 1
Readings of pKd for the listed sequences
Expect pKd as a plain number equal to -log10 of the molar concentration.

Record `ELADQLIHL` . Reported pKd: 7.58

Record `NLGQHIYET` . Reported pKd: 7.47

Record `DLADQLIHL` . Reported pKd: 7.48

====

measured_target: HLA-B*08:01
method: IEDB peptide-MHC binding, purified MHC/direct/fluorescence; filed as Kd, often an IC50 or EC50 that approximates it; bounds were set here for any values at or beyond the usual limits of such assays
conditions_used: source organism: Influenza A virus (A/camel/Mongolia/1982(H1N1))
pKd: −log10 of the molar value.
measurement_name: pKd

Record `ELDEIGEDV` . Reported pKd: ≤ 4.70

====

Readings of pKd for the listed sequences
measured_target: HLA-B*44:02
method: IEDB peptide-MHC binding, purified MHC/direct/fluorescence; filed as Kd, often an IC50 or EC50 that approximates it; bounds were set here for any values at or beyond the usual limits of such assays
conditions_used: source organism: Rickettsia typhi
pKd: −log10 of the molar value.

Record `ELYPTVNTY` . Reported pKd: ≤ 4.70

With those in mind, consider the next sequence.
Record `APILVVSGI` . Reported pKd: ≤ 4.70

====

measured_target: HLA-A*02:12
method: IEDB peptide-MHC binding, purified MHC/competitive/fluorescence; filed as Kd, often an IC50 or EC50 that approximates it; bounds were set here for any values at or beyond the usual limits of such assays
conditions_used: source organism: Human immunodeficiency virus 1
measurement_name: pKd
Expect pKd as a plain number equal to -log10 of the molar concentration.

Form: item `DLADQLIHL` ; test system HLA-A*02:12; pKd: 6.32

With those in mind, consider the next sequence.
Form: item `NLGQHIYET` ; test system HLA-A*02:12; pKd: 6.49

====

Readings of Kd for the listed sequences
measured_target: HLA-A*30:02
method: IEDB peptide-MHC binding, purified MHC/competitive/radioactivity; filed as Kd, often an IC50 or EC50 that approximates it; bounds were set here for any values at or beyond the usual limits of such assays
conditions_used: source organism: SARS coronavirus Tor2
Could you give me the number in nM? Just the number is fine.

Recorded Kd, per entry:
Record `EIDETCEHEY` . Reported Kd: 1060

Record `VFFGYFASHF` . Reported Kd: 2820

Record `NTNPIQLSSY` . Reported Kd: 74.2

Record `LTNSVIIMAY` . Reported Kd: 49.1

Record `FNATKFPSVY` . Reported Kd: 1210

Record `MADQAMTQMY` . Reported Kd: 127

Others:
Record `SMMGFKMNY` . Reported Kd: 10.3

Record `TLDESFLGRY` . Reported Kd: 8.32

Record `GSVGFNIDY` . Reported Kd: 1660

====

measured_target: HLA-B*83:01
method: IEDB peptide-MHC binding, purified MHC/competitive/fluorescence; filed as Kd, often an IC50 or EC50 that approximates it; bounds were set here for any values at or beyond the usual limits of such assays
conditions_used: source organism: Vibrio vulnificus YJ016
pKd: −log10 of the molar value.
measurement_name: pKd

Record `YTMELCGAM` . Reported pKd: ≤ 5.30

====

measured_target: HLA-A*23:01
method: IEDB peptide-MHC binding, purified MHC/competitive/radioactivity; filed as Kd, often an IC50 or EC50 that approximates it; bounds were set here for any values at or beyond the usual limits of such assays
conditions_used: source organism: Triticum aestivum
pKd: −log10 of the molar value.
measurement_name: pKd

Record `SSQVLQQSTY` . Reported pKd: ≤ 4.38

====

measured_target: HLA-A*02:03
method: IEDB peptide-MHC binding, purified MHC/direct/fluorescence; filed as Kd, often an IC50 or EC50 that approximates it; bounds were set here for any values at or beyond the usual limits of such assays
conditions_used: source organism: Bacillus cereus H3081.97
pKd: −log10 of the molar value.
measurement_name: pKd

Record `YSTVRDLFL` . Reported pKd: ≤ 4.70

====

measured_target: HLA-A*31:01
method: IEDB peptide-MHC binding, purified MHC/direct/fluorescence; filed as Kd, often an IC50 or EC50 that approximates it; bounds were set here for any values at or beyond the usual limits of such assays
conditions_used: source organism: Yersinia enterocolitica
measurement_name: Kd (nM)
Could you give me the number in nM? Just the number is fine.

Record `RIYSHIAPY` . Reported Kd: 46.7

====

measured_target: HLA-A*02:12
method: IEDB peptide-MHC binding, purified MHC/direct/fluorescence; filed as Kd, often an IC50 or EC50 that approximates it; bounds were set here for any values at or beyond the usual limits of such assays
conditions_used: source organism: Giardia lamblia ATCC 50803
measurement_name: pKd
Expect pKd as a plain number equal to -log10 of the molar concentration.

Record `LPVFATIGL` . Reported pKd: 6.41

====

measured_target: HLA-A*24:02
method: IEDB peptide-MHC binding, purified MHC/direct/fluorescence; filed as Kd, often an IC50 or EC50 that approximates it; bounds were set here for any values at or beyond the usual limits of such assays
conditions_used: source organism: Brucella melitensis
pKd: −log10 of the molar value.
measurement_name: pKd

Record `CTDPPLLSV` . Reported pKd: ≤ 4.70

====

measured_target: HLA-A*02:01
method: IEDB peptide-MHC binding, purified MHC/competitive/radioactivity; filed as Kd, often an IC50 or EC50 that approximates it; bounds were set here for any values at or beyond the usual limits of such assays
conditions_used: source organism: Trypanosoma cruzi
measurement_name: Kd (µM)
Could you give me the number in µM? Just the number is fine.

Record `GVLPLLLLYS` . Reported Kd: 2.37

====

measured_target: HLA-A*32:07
method: IEDB peptide-MHC binding, purified MHC/competitive/fluorescence; filed as Kd, often an IC50 or EC50 that approximates it; bounds were set here for any values at or beyond the usual limits of such assays
conditions_used: source organism: dengue virus type 4
pKd: −log10 of the molar value.
measurement_name: pKd

Record `STMPLVMAW` . Reported pKd: ≥ 9.00

====

measured_target: HLA-A*02:03
method: IEDB peptide-MHC binding, purified MHC/competitive/fluorescence; filed as Kd, often an IC50 or EC50 that approximates it; bounds were set here for any values at or beyond the usual limits of such assays
conditions_used: source organism: Shigella dysenteriae Sd197
measurement_name: Kd

Form: item `IEDDEIIWV` ; test system HLA-A*02:03; Kd: ≥ 20 µM

====

measured_target: HLA-A*01:01
method: IEDB peptide-MHC binding, purified MHC/competitive/fluorescence; filed as Kd, often an IC50 or EC50 that approximates it; bounds were set here for any values at or beyond the usual limits of such assays
conditions_used: source organism: Escherichia coli 536
measurement_name: pKd
Expect pKd as a plain number equal to -log10 of the molar concentration.

Record `KLYPNVDFY` . Reported pKd: 5.46

====

measured_target: HLA-A*03:01
method: IEDB peptide-MHC binding, purified MHC/direct/fluorescence; filed as Kd, often an IC50 or EC50 that approximates it; bounds were set here for any values at or beyond the usual limits of such assays
conditions_used: source organism: Cryptosporidium parvum Iowa II
pKd: −log10 of the molar value.
measurement_name: pKd

Record `KQMSQPYAV` . Reported pKd: ≤ 4.70

====

measured_target: HLA-A*68:01
method: IEDB peptide-MHC binding, purified MHC/competitive/radioactivity; filed as Kd, often an IC50 or EC50 that approximates it; bounds were set here for any values at or beyond the usual limits of such assays
conditions_used: source organism: Dengue virus 1 Brazil/97-11/1997
measurement_name: Kd (µM)
Could you give me the number in µM? Just the number is fine.

Form: item `HAIGTSITQK` ; test system HLA-A*68:01; Kd: 0.0345

====

measured_target: HLA-A*02:11
method: IEDB peptide-MHC binding, purified MHC/competitive/fluorescence; filed as Kd, often an IC50 or EC50 that approximates it; bounds were set here for any values at or beyond the usual limits of such assays
conditions_used: source organism: Cryptosporidium parvum Iowa II
pKd: −log10 of the molar value.
measurement_name: pKd

Form: item `VYWENEVSI` ; test system HLA-A*02:11; pKd: ≤ 4.70

====

measured_target: HLA-A*24:03
method: IEDB peptide-MHC binding, purified MHC/direct/fluorescence; filed as Kd, often an IC50 or EC50 that approximates it; bounds were set here for any values at or beyond the usual limits of such assays
conditions_used: source organism: Zaire ebolavirus
measurement_name: Kd

Record `LSDAIFDDL` . Reported Kd: ≥ 20 µM
